Give measured composite z-score for each item. Keep answers brief.
assay: binders from COS7 lysate, DM2A8 probe, primary screen, torsin A project, cell lysate, small-molecule microarray, fluorescence 635/667 (AID 1065); settings: higher = more signal, COS7 lysate expressing mutant human TOR1A
Give bare numbers.

# structureSmiles, assayMetric, quantitativeReadout
data = [
    ("C=CCNC(=O)[C@H]1[C@@H]2C(=O)O[C@@H](c3ccccc3)[C@@H](c3ccccc3)N2[C@@H](c2ccc(O)cc2)[C@]12C(=O)N(C(=O)OCCOC)c1ccc(C#Cc3ccc(OC)cc3)cc12", "composite z-score", 0.383),
]

Would you mind giving composite z-score for every compound in the list below?
1. C=CCNC(=O)[C@H]1[C@@H]2C(=O)O[C@@H](c3ccccc3)[C@@H](c3ccccc3)N2[C@@H](c2ccc(OCCO)cc2)[C@]12C(=O)Nc1ccc(C#Cc3ccc(OC)cc3)cc12
2. CC(C)(C)OC(=O)CC[C@@]1(C(=O)N2CCOCC2)N=C(c2ccc(OCCCO)cc2)O[C@@H]1c1ccccc1CN=[N+]=[N-]

stdout:
[0.897, 0.161]

###

target: Torsin-1A (Homo sapiens); assay: torsin A binders from cell lysate, primary screen, small-molecule microarray, wild-type, 635/667 nm (AID 1149); conditions: COS7 hTOR1A-WT lysate, 635 nm fluorescence, higher = more signal
Quick rule: composite z-score of at least 0.2 means 1.0, below that means 0.0.

Reference set (5 entries):
# compound, categoryLabel
data = [
    ("C=CC[C@@]1(C(=O)NCCCOC)N=C(c2ccc(OCCCO)cc2)O[C@@H]1c1ccccc1CN=[N+]=[N-]", 0.0),
    ("CC1C2C(CCCO)=CC(C3C(=O)N(C(N)=O)C(=O)C23)N1Cc1cccc(OC(F)(F)F)c1 (centres undefined)", 1.0),
    ("Cc1cccc([C@H]2C[C@H]3C(Br)=C[C@@]2(CO)C(=O)[C@]32CO2)c1", 0.0),
    ("CCCCC=C[C@@H](NC(=O)C(C)(C)C)c1ccccc1", 1.0),
    ("CN1C(=O)C2C=CC(C(O)c3ccc(I)cc3)N(N(c3ccccc3)c3ccccc3)C2C1=O (centres undefined)", 0.0),
]

stdin: Identify whether the reported composite z-score of the following compound is 0.2 or greater: "C=C(C(=O)CC[C@@H](OC(=O)c1cccnc1)c1cccc(OCCO)c1)C(C)C"
stdout: 0.0

stdin: Identify whether the reported composite z-score of the following compound is 0.2 or greater: CC1CC/C=C\[C@H]2OC34C=CCN(CCN5CCOCC5)C(=O)[C@H]3N(C(CO)C(C)C)C(=O)[C@@H]4C2C(=O)O1 (some centres undefined)
stdout: 1.0

stdin: Identify whether the reported composite z-score of the following compound is 0.2 or greater: "C=CC[C@H](O)c1ccc(O)c2ccccc12"
stdout: 0.0

stdin: Identify whether the reported composite z-score of the following compound is 0.2 or greater: COc1ccc(C(O)C2C=CC3C(=O)N(c4ccccc4)C(=O)C3N2Nc2ccccc2F)c2ccccc12 (centres undefined)
stdout: 0.0

###

Give measured composite z-score for each item. Keep answers brief.
test: small-molecule binders of probe aNOTCH3, primary screen, biochemical, small-molecule microarray, 635/667 nm fluorescence (AID 1120); settings: higher = more signal;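 note: probe is a biotin-tagged antibody raised against NOTCH3 rather than NOTCH3 protein; score merges spot fluorescence near 667 nm with spot signal to noise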
Numbers only.

Would you mind giving composite z-score for every molecule in the list below?
1. CCOC(=O)C[C@H]1[C@H](OC(=O)c2ccc(-c3ccccc3)cc2)[C@@H](NC(=O)C2CCCCC2)c2cc(OCCCO)ccc2N1C(=O)Cc1ccc(OC)cc1
2. COc1ccc([Si](C)(C)[C@@H]2[C@@H](CC(=O)N(CCO)Cc3ccccc3)O[C@]3(C(=O)N(Cc4cccc(I)c4)c4ccccc43)[C@H]2C)cc1
3. COc1ccc(C(O)C2C=CC3C(=O)N(C)C(=O)C3N2Nc2ccccc2)cc1 (stereo not given)
4. COCCOC(=O)N1C(=O)[C@@]2(c3cc(C#CCC(C(=O)OC)C(=O)OC)ccc31)[C@H](C(=O)N1CCc3cc(OC)c(OC)cc3C1)[C@H]1C(=O)O[C@H](c3ccccc3)[C@H](c3ccccc3)N1[C@@H]2c1ccccc1OCCO
5. C[N+](C)(C)CCCC[C@@H]1NC(=O)[C@H]2C[C@@H](C(=O)NCCCCCN)[C@@H](c3ccc(O)cc3)N2C1=O
6. CC(C)(C)OC(=O)CC[C@]1(C(=O)N2CCOCC2)COC(c2ccc(OCCCO)cc2)=N1

stdout:
1: -0.0362; 2: 0.0522; 3: 0.344; 4: 0.182; 5: -0.0586; 6: -0.0387

Would you mind giving composite z-score for every molecule in the list below?
1. COC(=O)[C@@]1(Cc2ccc(F)cc2)[C@H]2c3cc(C(=O)N(C)C)n(Cc4ccc(C(F)(F)F)nc4)c3C[C@H]2CN1C(=O)c1ccccc1
2. C=C[C@H](OC)[C@@H](O)c1ccc(OC)c(O)c1
3. CC(C)c1ccc(NN2C(C(O)C3CCCCC3)C=CC3C(=O)N(c4ccccc4)C(=O)C32)cc1 (stereo not given)

stdout:
1. 0.894
2. -0.557
3. 0.286

Would you mind giving composite z-score for every molecule in the list below?
1. O=C1C2C=CC(C(O)C3CCCCC3)N(Nc3ccccc3F)C2C(=O)N1c1ccccc1 (stereo not given)
2. C=C(CCCC)/C(=C/C[C@@H](OC(C)=O)c1cccc(OCCO)c1)c1cc(C(=O)OC)ccc1OC
3. C=CCNC(=O)[C@@H]1[C@H]2C(=O)O[C@H](c3ccccc3)[C@H](c3ccccc3)N2[C@H](c2ccc(OCCO)cc2)[C@@]12C(=O)Nc1ccc(C#CC3=CCCCC3)cc12
4. CCOC(=O)C=C1C[C@@H](c2cccc([N+](=O)[O-])c2)O[C@@H](c2cccc([N+](=O)[O-])c2)O1
5. O=C1N(Cc2ccccc2)Cc2ccccc2C[C@@]12COC(c1ccc(OCCCO)cc1)=N2
6. [N-]=[N+]=NCc1ccccc1[C@H]1OC(c2ccc(OCCCO)cc2)=N[C@@]1(Cc1ccccc1N=[N+]=[N-])C(N)=O
7. C=C(C(=O)CC[C@@H](OC(=O)c1ccccc1-c1ccccc1C(=O)O)c1ccc(CO)o1)C(C)C

stdout:
1. 0.457
2. -0.0131
3. 0.0493
4. 0.13
5. 0.133
6. 0.339
7. -0.0858

Would you mind giving composite z-score for every molecule in the list below?
1. COC(=O)C1(CC(C)C)C=C2C(=C(C)C(=O)C2C)CN1 (stereo not given)
2. [N-]=[N+]=Nc1ccccc1C[C@]1(C(N)=O)COC(c2ccc(OCCCO)cc2)=N1

stdout:
1: 0.786; 2: 0.148

Would you mind giving composite z-score for every molecule in the list below?
1. C=C(CCCC)C(=O)CC[C@@H](OC(C)=O)c1ccc(OCCO)cc1
2. C=CCN1C(=O)[C@]2(O[C@H](CCO)[C@@H]([Si](C)(C)c3ccc(OC)cc3)[C@@H]2C)c2cc(N3C(=O)c4ccccc4Oc4ccccc43)ccc21
3. C=C(COC)/C(=C/C[C@@H](OC(=O)c1ccncc1)c1ccccc1OCCO)c1cnc2ccccc2c1
4. C=CCNC(=O)[C@H]1[C@@H]2C(=O)O[C@@H](c3ccccc3)[C@@H](c3ccccc3)N2[C@@H](c2ccc(O)cc2)[C@]12C(=O)N(C(=O)OCCOC)c1ccc(C#Cc3ccc(OC)cc3)cc12
5. [N-]=[N+]=Nc1ccccc1C[C@@]1(C(=O)NCC(O)CO)N=C(c2ccc(OCCCO)cc2)O[C@@H]1c1ccccc1N=[N+]=[N-] (stereo not given in full)
6. CC1C2C(CCCO)=CC(C3C(=O)N(C(N)=O)C(=O)C23)N1Cc1cccc(OC(F)(F)F)c1 (stereo not given)
7. CCCCC=C[C@@H](NC(=O)C(C)(C)C)c1ccccc1

stdout:
1: 0.15; 2: -0.0328; 3: 0.265; 4: 0.0271; 5: 0.204; 6: -0.068; 7: 0.259

Would you mind giving composite z-score for every molecule in the list below?
1. [N-]=[N+]=NCc1ccccc1C[C@@]1(C(N)=O)N=C(c2ccc(OCCCO)cc2)O[C@@H]1c1ccccc1N=[N+]=[N-]
2. CCCCCCc1nc(Cc2cc(OC)c(OC)c(OC)c2)c(C)c2c1[Si](C(C)C)(C(C)C)OC2
3. CN(C)CCCCCCNC(=O)[C@@H]1C[C@@H]2C(=O)N[C@@H](CCCC[N+](C)(C)C)C(=O)N2[C@@H]1c1cccc(OCCO)c1
4. Cc1ccc(S[C@]2(C(=O)NC3CC3)CC(=O)N(C3Cc4ccccc4C3)[C@@H]2c2ccc(CO)cc2I)cc1
5. Cc1ccc(N2C(=O)c3ccccc3[C@@H](C(=O)NCCN3CCOCC3)[C@@H]2c2ccc(CO)cc2)nc1

stdout:
1: 0.0065; 2: -0.13; 3: -0.155; 4: -0.283; 5: 0.595

###

biological target: Left-right determination factor 2 (Homo sapiens) (UniProt O00292); assay: LEFTY2 binders on small-molecule microarrays, primary screen, biochemical, small-molecule microarray, 635 nm fluorescence scan (AID 1110); conditions: LEFTY2 binding, higher = more signal
Sequence (O00292 whole entry, looked up): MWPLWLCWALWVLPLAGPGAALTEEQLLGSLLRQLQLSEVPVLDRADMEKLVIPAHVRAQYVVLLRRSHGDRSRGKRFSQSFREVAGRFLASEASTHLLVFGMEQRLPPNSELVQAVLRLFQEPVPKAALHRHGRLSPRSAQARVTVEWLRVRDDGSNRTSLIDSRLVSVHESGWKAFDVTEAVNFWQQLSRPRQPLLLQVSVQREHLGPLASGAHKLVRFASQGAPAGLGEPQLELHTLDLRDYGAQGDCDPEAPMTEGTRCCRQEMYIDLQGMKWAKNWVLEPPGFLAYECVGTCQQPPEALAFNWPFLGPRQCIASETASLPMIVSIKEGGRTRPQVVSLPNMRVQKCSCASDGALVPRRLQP
Give measured composite z-score for each item. Keep answers brief.
Answers are plain numbers.

# example entries with known answers
# structureSmiles, testedOn, composite z-score
rows = [
    ("CCCNC(=O)[C@@]1(Sc2ccc(C)cc2)CC(=O)N(Cc2cc(C(F)(F)F)cc(C(F)(F)F)c2)[C@@H]1c1ccc(CO)cc1", "Left-right determination factor 2 (Homo sapiens) (UniProt O00292)", -0.272),
    ("C=C(COC)C(=O)CC[C@H](OC(C)=O)c1ccccc1OCCO", "Left-right determination factor 2 (Homo sapiens) (UniProt O00292)", -0.0181),
    ("C=C(CC1([C@@H](NP(=O)(c2ccccc2)c2ccccc2)[C@H]2C[C@@H]2CCCC)CC1)c1cccc(OC)c1", "Left-right determination factor 2 (Homo sapiens) (UniProt O00292)", -0.872),
]

stdin: Looking for the measured composite z-score of "O=C1O[C@H](c2ccccc2)[C@H](c2ccccc2)N2[C@H]1[C@@H](C(=O)O)[C@]1(C(=O)Nc3ccccc31)[C@H]2c1ccc(OCCO)cc1" , can you help?
stdout: -0.242

Origin of measurements: PubChem BioAssay
